Give measured pKd for each item. Keep answers brief.
Molecular target: T1, cynomolgus MCSP D3 (cynomolgus, UniProt Q6UVK1 1582-2224 (human entry), limits assumed)
T1 construct: also called Cyno MCSP; cynomolgus homologue
T1 chain: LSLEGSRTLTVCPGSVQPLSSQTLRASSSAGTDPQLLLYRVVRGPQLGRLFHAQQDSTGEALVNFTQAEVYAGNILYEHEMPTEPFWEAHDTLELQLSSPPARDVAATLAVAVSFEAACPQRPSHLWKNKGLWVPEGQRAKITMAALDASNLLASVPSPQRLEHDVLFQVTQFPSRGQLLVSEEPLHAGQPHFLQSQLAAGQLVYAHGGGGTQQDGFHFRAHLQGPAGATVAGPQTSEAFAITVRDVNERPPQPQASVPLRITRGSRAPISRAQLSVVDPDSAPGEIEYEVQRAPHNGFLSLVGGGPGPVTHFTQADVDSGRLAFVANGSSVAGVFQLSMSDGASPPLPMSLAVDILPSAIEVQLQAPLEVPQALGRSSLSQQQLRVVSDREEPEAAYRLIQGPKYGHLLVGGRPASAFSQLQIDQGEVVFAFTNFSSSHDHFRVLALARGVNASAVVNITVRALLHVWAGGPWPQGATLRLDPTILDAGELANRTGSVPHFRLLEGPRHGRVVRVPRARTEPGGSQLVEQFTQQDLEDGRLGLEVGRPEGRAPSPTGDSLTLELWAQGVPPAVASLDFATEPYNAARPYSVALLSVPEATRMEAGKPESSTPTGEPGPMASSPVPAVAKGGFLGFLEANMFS
Test: SPR ProteOn XPR36, 25 C; IgG captured via anti-human F(ab')2, MCSP D3 as analyte
One number for each entry, as −log10 of the molar value.

binder="M4-3(B7)/ML2 IgG (antibody, V domains shown, Human IgG1) VH: QVQLQESGPGLVKPSQTLSLTCTVSGGSITSGYYWNWIRQHPGKGLEWIGYITFDGINNYNPSLKSRVTISRDTSKNQFSLKLSSVTAADTAVYYCADFDYWGQGTLVTVSS VL: DIQMTQSPSSLSASVGDRVTITCRASQGIRNYLNWYQQKPGKAPKLLIYYTSSLHSGVPSRFSGSGSGTDFTLTISSLQPEDFATYYCQQYSKLPWTFGQGTKVEIK" readout_kind=pKd assay_result=9.15

Each of the following entries comes with a recorded value; kindly state pKd for each.
1. M4-3(C1)/ML2(G3) IgG (antibody, V domains shown, Human IgG1) VH: QVQLQESGPGLVKPSQTLSLTCTVSGGSITSGYYWNWIRQHPGKGLEWIGYITFDGSNNYNPSLKSRVTISRDTSKNQFSLKLSSVTAADTAVYYCADFDYWGQGTLVTVSS VL: DIQMTQSPSSLSASVGDRVTITCRASQGIRNYLNWYQQKPGKAPKLLIYYTSSLHSGVPSRFSGSGSGTDYTLTISSLQPEDFATYYCQQYSALPWTFGQGTKVEIKR
2. M4-(A7)/ML2(C5) IgG (antibody, V domains shown, Human IgG1; also called M4-3(A7)/ML2(C5)) VH: QVQLQESGPGLVKPSQTLSLTCTVSGGSITDGYYWNWIRQHPGKGLEWIGYITFDGRNNYNPSLKSRVTISRDTSKNQFSLKLSSVTAADTAVYYCADFDYWGQGTLVTVSS VL: DIQMTQSPSSLSASVGDRVTITCRASRGIREYLNWYQQKPGKAPKLLIYYTGSLHSGVPSRFSGSGSGTDFTLTISSLQPEDFATYYCQQYSELPWTFGQGTKVEIK
3. M4-3/ML2(G3) IgG (antibody, V domains shown, Human IgG1) VH: QVQLQESGPGLVKPSQTLSLTCTVSGGSITSGYYWNWIRQHPGKGLEWIGYITYDGSNNYNPSLKSRVTISRDTSKNQFSLKLSSVTAADTAVYYCADFDYWGQGTLVTVSS VL: DIQMTQSPSSLSASVGDRVTITCRASQGIRNYLNWYQQKPGKAPKLLIYYTSSLHSGVPSRFSGSGSGTDYTLTISSLQPEDFATYYCQQYSALPWTFGQGTKVEIK
4. M4-3/ML2(E10) IgG (antibody, V domains shown, Human IgG1) VH: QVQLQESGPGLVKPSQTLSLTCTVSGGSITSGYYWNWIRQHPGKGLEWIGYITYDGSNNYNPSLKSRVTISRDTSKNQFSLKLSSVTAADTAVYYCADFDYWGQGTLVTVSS VL: DIQMTQSPSSLSASVGDRVTITCRASYGIRGYLNWYQQKPGKAPKLLIYYTSSLHSGVPSRFSGSGSGTDFTLTISSLQPEDFATYHCQQYSKLPWTFGQGTKVEIK

9.70
9.70
9.22
8.70
